src = patent US6506876B1

- TARGET OR TEST SYSTEM: recombinant human LTA4 hydrolase (rhLTA4H) (Homo sapiens, UniProt P09960)
- Sequence (P09960 whole entry): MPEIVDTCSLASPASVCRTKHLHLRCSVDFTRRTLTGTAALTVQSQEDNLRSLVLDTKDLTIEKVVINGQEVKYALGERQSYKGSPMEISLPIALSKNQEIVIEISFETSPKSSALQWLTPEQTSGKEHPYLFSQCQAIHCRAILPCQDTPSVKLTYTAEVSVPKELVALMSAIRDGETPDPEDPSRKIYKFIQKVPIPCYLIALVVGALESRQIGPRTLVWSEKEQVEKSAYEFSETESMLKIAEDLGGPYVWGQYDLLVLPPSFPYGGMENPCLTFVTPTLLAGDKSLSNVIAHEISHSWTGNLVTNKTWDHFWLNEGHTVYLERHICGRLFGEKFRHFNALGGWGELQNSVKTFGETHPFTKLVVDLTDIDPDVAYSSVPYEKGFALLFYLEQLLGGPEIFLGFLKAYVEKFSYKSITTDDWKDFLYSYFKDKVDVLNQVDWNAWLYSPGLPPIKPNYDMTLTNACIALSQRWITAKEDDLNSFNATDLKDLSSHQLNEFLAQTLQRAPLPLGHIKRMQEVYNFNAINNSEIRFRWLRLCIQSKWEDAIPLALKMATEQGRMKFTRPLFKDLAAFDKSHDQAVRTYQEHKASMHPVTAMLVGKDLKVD
- ASSAY PROTOCOL: Recombinant human LTA4 hydrolase assay for LTA4 hydrolase inhibitor activity
- STUDY CONDITIONS: read-out: Recombinant Human LTA4 Hydrolase Assay, % at 3 μM
Provide the reported inhibition at 3 µM of each item.
Quick reminder: number only, in %, skip the unit.

Sure, the documented inhibition at 3 µM for c1ccc(COc2ccc(OCCn3cnc4cccnc43)cc2)cc1 is 31

For record O=C(OCc1ccccc1)[C@@H]1CCCN1CCCOc1ccc(Cc2ccccc2)cc1 the listed inhibition at 3 µM is 28

GET /value?item= Fc1ccc(Oc2ccc(OCCn3cnc4cccnc43)cc2)cc1 &field=inhibition at 3 µM returns 51

Just so you know, measured inhibition at 3 µM for Cc1nc(COc2ccc(OCCN3CCCC3)cc2)cs1 came out at 44

The measured inhibition at 3 µM associated with CC(C)(C)OC(=O)C1CCCN1CCCOc1ccc(Cc2ccccc2)cc1 (centres unmarked) reads 14

inhibition at 3 µM reading for c1ccc(Oc2ccc(OCCCn3cnc4ccccc43)cc2)cc1 : 40

// recorded inhibition at 3 µM for c1ccc(COc2ccc(OCCn3cnc4ccccc43)cc2)cc1 : 35

// inhibition at 3 µM value for CC(C)(C)OC(=O)CCNCCCOc1ccc(Cc2ccccc2)cc1 : 53
